Give measured Array Heatmap value (peptide array binding signal) for each item. Keep answers brief.
- System: MLL5
- assay.procedure: Histone peptide microarray
- Type: binding, human
- test.conditions: MLL5, GST-tagged; arrays performed twice, n of 4
Where no end group is shown, it is not given here. [ ]: non-standard residue; d: D form. pS = N[C@@H](COP(=O)(O)O)C(=O)O
// no unit string in output, number only

What value of measured Array Heatmap value (peptide array binding signal) is listed for H2AS1p + K5ac: H2A 1-17 ([pS]GRGK(Ac)QGGKARAKAKTR; UniProt P0C0S8 2-18, looked up, fragment) ?
0.4623

Try this substance next: H2AX (132-142): H2AX 132-142 (GKKATQASQEY; UniProt P16104 133-143, looked up, fragment)
0.533

What do you have for H2A.Z (1-19): H2AZ 1-19 (AGGKAGKDSGKAKTKAVSR; UniProt P0C0S5 2-20, looked up, fragment) ?
0.5607

Also need H2AX (S139p): H2AX 132-142 (GKKATQA[pS]QEY; UniProt P16104 133-143, looked up, fragment) , thanks.
0.5137
